Each recorded value in this set is attributed to ChEMBL document CHEMBL1121688.

Molecular target: Dopamine receptor
Test: Relative affinity for dopamine receptor by displacement of [3H]spiroperidol (2.2 nM) from (in vitro) dopamine binding sites in rat caudate nuclei
In this section we review reported IC50 values for a set of molecules.

Which IC50 is reported for this molecule? `CN1CCC(C2=Cc3cc(Cl)ccc3Cc3ccccc32)CC1`
678 nM

What would you report for `CN1CCN(C2=Cc3ccccc3Cc3ccc(Cl)cc32)CC1` ?
39 nM

// next record `CN1CCN(C2=Nc3ccccc3Nc3ccc(Cl)cc32)CC1`
758 nM

And the next one, `CN1CCN(C2=Cc3ccccc3Cc3ccccc32)CC1` ?
808 nM

What do you get for `CN1CCN(C2=Nc3cc(Cl)ccc3N(C)c3ccccc32)CC1` ?
32400 nM
